Hi there, I'd appreciate the recorded neutralization IC50 for every entry that follows.
- system: HIV-1 strain CAP210.2.00.E8 envelope (gp120) (HIV-1)
- test.details: cell-based or functional assay
One number for each entry, in mg/L.

Provide the reported neutralization IC50 of each entry below, same order.
1. 3BNC117 IgG (antibody, V domains shown) VH: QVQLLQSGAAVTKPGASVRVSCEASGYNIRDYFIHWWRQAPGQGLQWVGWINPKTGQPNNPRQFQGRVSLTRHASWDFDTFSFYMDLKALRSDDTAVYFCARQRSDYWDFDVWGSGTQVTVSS VL: DIQMTQSPSSLSASVGDTVTITCQANGYLNWYQQRRGKAPKLLIYDGSKLERGVPSRFSGRRWGQEYNLTINNLQPEDIATYFCQVYEFVVPGTRLDLKRTVA
2. 3BNC60 IgG (antibody, V domains shown) VH: QVHLSQSGAAVTKPGASVRVSCEASGYKISDHFIHWWRQAPGQGLQWVGWINPKTGQPNNPRQFQGRVSLTRQASWDFDTYSFYMDLKAVRSDDTAIYFCARQRSDFWDFDVWGSGTQVTVSS VL: DIQMTQSPSSLSARVGDTVTITCQANGYLNWYQQRRGKAPKLLIYDGSKLERGVPARFSGRRWGQEYNLTINNLQPEDVATYFCQVYEFIVPGTRLDLKRTVA

Result block:
11
4.7
